assay: Stability tests of Al18F-complexes in rat serum at 37° C., Example 26; assay type: in vitro ADME
Observation type: stability in rat serum (in words)

What value of stability in rat serum (in words) has been recorded for this entry: O=C1CN(Cc2ccccc2O)CCN2CC(=O)[O][Al-]([18F])([O]1)[O]c1ccccc1C2 (stereo not shown) [Al^18F-L2]
unstable in serum

What value of stability in rat serum (in words) has been recorded for this entry: O=C1CN2CCN(Cc3ccccc3)CC(=O)[O][Al-]([18F])([O]1)[O]C(=O)C2 [Al^18F-L1]
unstable in serum

---

assay: Stability tests of Al18F-complexes in PBS (0.1 M, pH 7) at 37° C., Example 26; type: physicochemical; settings: PBS 0.1 M pH 7, 37° C.
Observation type: stability in PBS (in words)

What value of stability in PBS (in words) has been recorded for this entry: O=C1CN2CCN(Cc3ccccc3)CC(=O)[O][Al-]([18F])([O]1)[O]C(=O)C2 [Al^18F-L1]
do not seem to be stable

What value of stability in PBS (in words) has been recorded for this entry: O=C1CN(Cc2ccccc2)CCN(Cc2ccccn2)CC(=O)[O][Al]([18F])[O]1 [Al^18F-L7]
do not seem to be stable

What value of stability in PBS (in words) has been recorded for this entry: O=C1CN(Cc2ccccc2O)CCN2CC(=O)[O][Al-]([18F])([O]1)[O]c1ccccc1C2 (centres unmarked) [Al^18F-L2]
do not seem to be stable
